target: G1 APOL1 (Homo sapiens, UniProt O14791, I384M/S342G); construct: expressed in transfected cells; test: Acute APOL1 Thallium Assay with inducible stable clones of HEK 293 cells; assay type: cell-based; conditions: HEK 293 T-Rex cells expressing G1 APOL1; read-out: Thallium Assay (IC50)
pIC50: −log10 of the molar value.
Each entry below lists one item and its recorded pIC50 value.

| Molecule | Value Measured |
| --- | --- |
| COC[C@@H]1CCN1C(=O)[C@H]1C[C@H](c2c(-c3ccc(F)cc3)[nH]c3c(F)cc(F)cc32)C1 [Compound 222] | 6.00 to 6.60 |
| CC1(C)CN(C(=O)[C@H]2C[C@H](c3c(-c4ccc(F)cc4)[nH]c4c(F)cc(F)cc43)C2)CC1O (some centres unmarked) [Compound 102] | < 6.00 |
| O=C(NC[C@@H](O)CO)[C@H]1C[C@H](c2c(-c3ccc(F)cc3)[nH]c3c(F)cc(F)cc32)C1 [Compound 224] | < 6.00 |
| C[C@@H](CO)NC(=O)[C@H]1C[C@H](c2c(-c3ccc(F)cc3)[nH]c3c(F)cc(F)cc32)C1 [Compound 27] | > 6.60 |
| O=C([C@H]1C[C@H](c2c(-c3ccc(F)cc3)[nH]c3c(F)cc(F)cc32)C1)N1C2CCC(C2)C1CO (some centres unmarked) [Compound 97] | < 6.00 |
| CC(CO)NC(=O)[C@H]1C[C@@H](c2c(-c3ccc(F)cc3)[nH]c3c(F)cc(F)cc32)C1 (mixture of isomers) [Compound 243] | < 6.00 |
| C[C@@H](NC(=O)[C@H]1C[C@H](c2c(-c3ccc(F)cc3)[nH]c3c(F)cc(F)cc32)C1)C(N)=O [Compound 28] | 6.00 to 6.60 |
| O=C([C@H]1C[C@H](c2c(-c3ccc(F)cc3)[nH]c3c(F)cc(F)cc32)C1)N1CC(OCC2CCCO2)C1 (some centres unmarked) [Compound 136] | < 6.00 |
| CC(NC(=O)[C@H]1C[C@H](c2c(-c3ccc(F)cc3)[nH]c3c(F)cc(F)cc32)C1)c1ccnn1C (mixture of isomers) [Compound 76] | < 6.00 |
| O=C1NCCCC1NC(=O)[C@H]1C[C@@H](c2c(-c3ccc(F)cc3)[nH]c3c(F)cc(F)cc32)C1 (some centres unmarked) [Compound 249] | < 6.00 |

Note to self: pIC50 recorded for N#CC(CO)NC(=O)[C@H]1C[C@H](c2c(-c3ccc(F)cc3)[nH]c3c(F)cc(F)cc32)C1 (some centres unmarked) [Compound 201] was > 6.60

Note to self: pIC50 recorded for O=C1NCCC1CNC(=O)[C@H]1C[C@H](c2c(-c3ccc(F)cc3)[nH]c3c(F)cc(F)cc32)C1 (some centres unmarked) [Compound 208] was < 6.00

Note to self: pIC50 recorded for O=C(NC(CO)CF)[C@H]1C[C@H](c2c(-c3ccc(F)cc3)[nH]c3c(F)cc(F)cc32)C1 (some centres unmarked) [Compound 78] was > 6.60

Note to self: pIC50 recorded for CN1CCC(NC(=O)[C@H]2C[C@H](c3c(-c4ccc(F)cc4)[nH]c4c(F)cc(F)cc43)C2)C1=O (some centres unmarked) [Compound 7] was 6.00 to 6.60

---

molecular target: G1 APOL1 (Homo sapiens, UniProt O14791, I384M/S342G); construct: expressed in transfected cells; assay: Acute APOL1 Thallium Assay with inducible stable clones of HEK 293 cells; type: cell-based; conditions: Table 24, Compounds 287 to 465; read-out: Thallium Assay (IC50)
Each entry below lists one item and its recorded IC50 value.

Some compounds with recorded IC50:
| Compound | Value Measured |
| --- | --- |
| O=C(NC[C@H]1C[C@H](c2c(-c3ccc(F)cc3)[nH]c3c(F)cc(F)cc32)C1)N[C@@H](CO)C(F)(F)F [Compound 413] | > 1000 nM |
| CC(C)(CO)NC(=O)O[C@H]1C[C@H](c2c(-c3ccc(F)cc3)[nH]c3c(F)cc(F)cc32)C1 [Compound 352] | 250 to 1000 nM |
| O=C(NC[C@H]1C[C@H](c2c(-c3ccc(F)cc3)[nH]c3c(F)cc(F)cc32)C1)N[C@H]1CC[C@H]1O [Compound 394] | > 1000 nM |

Note to self: IC50 recorded for COCC(C)NC(=O)O[C@H]1C[C@H](c2c(-c3ccc(F)cc3)[nH]c3c(F)cc(F)cc32)C1 (mixture of isomers) [Compound 360] was 250 to 1000 nM

Note to self: IC50 recorded for Cc1nn(C)cc1CNC(=O)C1CC(Cc2c(-c3ccc(F)cc3)[nH]c3c(F)cc(F)cc23)C1 (centres unmarked) [Compound 335] was > 1000 nM

Note to self: IC50 recorded for O=C(NC1(CCO)CC1)C1CC(Cc2c(-c3ccc(F)cc3)[nH]c3c(F)cc(F)cc23)C1 (centres unmarked) [Compound 311] was > 1000 nM

---

Target: G1 APOL1 (Homo sapiens, UniProt O14791, I384M/S342G)
Construct: expressed in transfected cells
Sequence (O14791 28-398 S342G/I384M): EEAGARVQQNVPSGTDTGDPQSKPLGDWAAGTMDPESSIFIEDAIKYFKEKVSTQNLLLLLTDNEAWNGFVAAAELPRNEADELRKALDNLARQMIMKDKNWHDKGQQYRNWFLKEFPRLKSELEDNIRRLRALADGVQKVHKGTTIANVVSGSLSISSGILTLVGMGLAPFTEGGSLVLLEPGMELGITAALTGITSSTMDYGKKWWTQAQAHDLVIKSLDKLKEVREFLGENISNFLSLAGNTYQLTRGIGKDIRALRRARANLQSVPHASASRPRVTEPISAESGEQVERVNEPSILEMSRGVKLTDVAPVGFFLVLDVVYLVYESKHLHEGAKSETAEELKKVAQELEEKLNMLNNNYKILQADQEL
Assay: Acute APOL1 Thallium Assay with inducible stable clones of HEK 293 cells
Assay type: cell-based
Details: Thallium Assay (IC50), HEK 293 T-Rex cells expressing G1 APOL1
Measured Endpoint: IC50

Note to self: IC50 recorded for `O=C([C@H]1C[C@H](c2c(-c3ccc(F)cc3)[nH]c3c(F)cc(F)cc32)C1)N1CCC(O)(O)CC1` was > 1000 nM

---

Each entry below lists one item and its recorded IC50 value.
Target: G1 APOL1 (Homo sapiens, UniProt O14791, I384M/S342G)
Construct: expressed in transfected cells
Assay: Acute APOL1 Thallium Assay with inducible stable clones of HEK 293 cells
Assay type: cell-based
Details: HEK 293 T-Rex cells expressing G1 APOL1; read-out: Thallium Assay (IC50)
Excerpt: Acute APOL1 Thallium Assay with Inducible Stable Clones of HEK 293 Cells Apolipoprotein L1 (APOL1) proteins form potassium-permeable cation pores in the plasma membrane. APOL1 risk variants (G1 and G2) induce greater potassium flux than G0 in HEK293 cells. […] The increase of fluorescence in the assay represents the influx of Tl+ into the cell specifically through the potassium channel (i.e. through APOL1 pores), providing a functional measurement of potassium channel/pore activity. […]

Some compounds with recorded IC50:
| Compound | IC50 |
| --- | --- |
| CC1(CO)CCN1C(=O)[C@H]1C[C@H](c2c(-c3ccc(F)cc3)[nH]c3c(F)cc(F)cc32)C1 (mixture of isomers) | 250 to 1000 nM |
| CC(C)CC(NC(=O)[C@H]1C[C@@H](c2c(-c3ccc(F)cc3)[nH]c3c(F)cc(F)cc32)C1)C(N)=O (stereo partly drawn) | > 1000 nM |

Note to self: IC50 recorded for CC1C[C@H](NC(=O)[C@H]2C[C@H](c3c(-c4ccc(F)cc4)[nH]c4c(F)cc(F)cc43)C2)C(=O)N1 (mixture of isomers) was > 1000 nM

---

Each entry below lists one item and its recorded IC50 value.
target: APOL1 G1 Protein (Homo sapiens, UniProt O14791, I384M/S342G); test: Trypanosoma brucei brucei lysis assay using APOL1 recombinant protein (AlamarBlue viability); format: cell-based; settings: Trypanosoma brucei brucei lysis, recombinant APOL1, AlamarBlue; read-out: Trypanosoma Assay (IC50)

| Compound | IC50 |
| --- | --- |
| CC(C)N(CCO)C(=O)[C@H]1C[C@H](c2c(-c3ccc(F)cc3)[nH]c3c(F)cc(F)cc32)C1 | 250 to 1000 nM |

Note to self: IC50 recorded for O=C([C@H]1C[C@H](c2c(-c3ccc(F)cc3)[nH]c3c(F)cc(F)cc32)C1)N1CC(O)C(N2CCOCC2)C1 (stereo partly drawn) was > 1000 nM

Note to self: IC50 recorded for `O=C([C@H]1C[C@H](c2c(-c3ccc(F)cc3)[nH]c3c(F)cc(F)cc32)C1)N1CCCC[C@@H]1CCO` was > 1000 nM
